Tested on: Bacteria
Assay: Inhibition of bacteria ADC-7 assessed as half life using nitrocefin as substrate
EXPERIMENTAL ENDPOINT: T1/2 (min)
Numeric only. Scale: min

Here are 4 compounds together with their reported answers.
- N#C[C@@H]1CC[C@@H]2CN1C(=O)N2OS(=O)(=O)[O-].[Na+]: 12
- O=C(NNC(=O)[C@@H]1CC[C@@H]2CN1C(=O)N2OS(=O)(=O)O)[C@@H]1CCCNC1: 11
- O.O=C(NC1CCNCC1)[C@@H]1CC[C@@H]2CN1C(=O)N2OS(=O)(=O)O: 39
- O=C(NNC(=O)[C@@H]1CC[C@@H]2CN1C(=O)N2OS(=O)(=O)O)[C@@H]1CCNC1: 13

From here, focus on the item given below.
Need T1/2, item NC(=O)[C@@H]1CC[C@@H]2CN1C(=O)N2OS(=O)(=O)[O-].[Na+] [AVIBACTAM SODIUM]
33

This collection of values is drawn from ChEMBL document CHEMBL5247575.
